system: UACC-62 melanoma; test: NCI tumour cell line growth inhibition, 48 h; in the data active = GI50 below about 0.43 µM; inactive = the rest
Outcomes: T (active), F (inactive)

{"molecule": "CCn1c(-c2nonc2N)nc2cncc(C(=O)N3CC[C@H](N)C3)c21", "answerLabel": "F"}
{"molecule": "O=C1/C=C/[C@@H](O)[C@@H]2C[C@@H](O)C[C@H]2/C=C/CCC[C@H](C(F)(F)F)O1", "answerLabel": "T"}
{"molecule": "COC(=O)c1ccc(NC(=O)Oc2ccc(N(CCCl)CCCl)cc2)cc1", "answerLabel": "F"}
{"molecule": "O=[N+]([O-])c1cccc(C2CC(c3ccccc3)=Nc3ccccc3S2)c1 (stereo not given)", "answerLabel": "F"}
{"molecule": "C#CCOc1ccc2ncnc(Nc3ccc(NC(=O)C=C)cc3)c2c1", "answerLabel": "F"}
